The reported numbers originate from ChEMBL document CHEMBL1961873.

target desc: Serine/threonine-protein kinase MARK2 (Homo sapiens) (UniProt Q7KZI7);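 further: mean percent inhibition of PAR-1Balpha kinase activity, reported from the GSK PKIS screen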
Sequence (Q7KZI7 whole entry): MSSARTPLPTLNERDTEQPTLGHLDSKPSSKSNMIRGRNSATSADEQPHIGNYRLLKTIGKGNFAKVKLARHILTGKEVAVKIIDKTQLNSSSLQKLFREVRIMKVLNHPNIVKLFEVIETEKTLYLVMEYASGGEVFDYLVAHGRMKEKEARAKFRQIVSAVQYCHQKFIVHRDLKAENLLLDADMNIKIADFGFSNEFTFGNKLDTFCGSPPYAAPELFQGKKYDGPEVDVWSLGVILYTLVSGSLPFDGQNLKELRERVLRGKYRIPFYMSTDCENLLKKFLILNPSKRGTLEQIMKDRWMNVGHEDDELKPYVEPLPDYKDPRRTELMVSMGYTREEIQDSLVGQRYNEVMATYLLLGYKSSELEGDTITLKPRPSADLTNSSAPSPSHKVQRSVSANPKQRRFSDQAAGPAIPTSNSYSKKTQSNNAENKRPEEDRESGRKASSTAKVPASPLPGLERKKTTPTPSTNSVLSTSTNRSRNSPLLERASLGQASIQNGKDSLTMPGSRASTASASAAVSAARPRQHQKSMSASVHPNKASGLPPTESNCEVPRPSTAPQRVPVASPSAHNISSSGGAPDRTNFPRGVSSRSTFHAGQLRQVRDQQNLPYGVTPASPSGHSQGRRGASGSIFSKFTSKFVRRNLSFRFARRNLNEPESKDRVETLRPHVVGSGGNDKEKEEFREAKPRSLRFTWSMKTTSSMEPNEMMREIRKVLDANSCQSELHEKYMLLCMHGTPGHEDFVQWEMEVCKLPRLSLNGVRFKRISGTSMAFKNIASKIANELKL
condition notes: at 0.1 µM
The entries below come with measured inhibition values attached.

- structure: "OCCCNc1nccc(-c2c(-c3ccc(F)cc3)nn3cc(C(F)(F)F)ccc23)n1"
  unit tag: "%"
  inhibition: -1.06
- structure: "O=C1Nc2ccccc2/C1=C1\\CCc2cc(O)ccc21"
  unit tag: "%"
  inhibition: 5.04
- structure: "COC(=O)Nc1nc2ccc(Oc3ccc(NC(=O)Nc4cc(C(F)(F)F)ccc4F)cc3)cc2s1"
  unit tag: "%"
  inhibition: -8.34
- structure: "O=C(O[C@H]1CN[C@H](C#Cc2cc3ncnc(Nc4ccc(OCc5cccc(F)c5)c(Cl)c4)c3s2)C1)N1CCOCC1"
  unit tag: "%"
  inhibition: 6.4
- structure: "NS(=O)(=O)c1ccc(N/N=C2\\C(=O)Nc3ccc(C(=O)NCc4ccncc4)cc32)cc1"
  unit tag: "%"
  inhibition: 0.88
- structure: "COc1ccccc1-c1cc(/C=C2\\C(=O)Nc3ncc(Br)cc32)cc(Br)c1O"
  unit tag: "%"
  inhibition: -0.96
- structure: "COc1cccc(-n2ncc3c(N/N=C/c4ccc(C(=O)NCCN(C)C)cc4)ncnc32)c1"
  unit tag: "%"
  inhibition: 1.55
- structure: "CN(c1ccc(NC(=O)NCCN2CCOCC2)cc1)c1ccnc(Nc2ccc(CS(C)(=O)=O)cc2)n1"
  unit tag: "%"
  inhibition: 0.88
- structure: "COc1cc2c(cc1Nc1nc(Nc3cccc(F)c3C(N)=O)c3cc[nH]c3n1)N(C(=O)CN1CCN(C(C)C)CC1)CC2"
  unit tag: "%"
  inhibition: 0.26

###

The entries below come with measured inhibition values attached.
target desc: Serine/threonine-protein kinase 26 (Homo sapiens) (UniProt Q9P289);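 further: mean inhibition of MST4 kinase activity, reported from the GSK PKIS inhibitor-set screening panel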
Sequence (Q9P289 2-416 limits assumed): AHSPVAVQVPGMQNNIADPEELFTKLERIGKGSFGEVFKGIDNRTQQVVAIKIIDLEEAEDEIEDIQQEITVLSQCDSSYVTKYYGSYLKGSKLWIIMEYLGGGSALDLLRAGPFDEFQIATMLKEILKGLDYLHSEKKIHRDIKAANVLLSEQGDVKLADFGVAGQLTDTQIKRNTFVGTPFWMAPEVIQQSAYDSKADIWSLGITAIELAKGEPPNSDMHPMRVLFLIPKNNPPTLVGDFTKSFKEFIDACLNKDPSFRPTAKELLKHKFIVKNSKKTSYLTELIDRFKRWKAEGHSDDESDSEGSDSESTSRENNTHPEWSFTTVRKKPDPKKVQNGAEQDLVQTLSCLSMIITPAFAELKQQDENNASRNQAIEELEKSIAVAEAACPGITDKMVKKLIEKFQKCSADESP
condition notes: at 1 µM
quantity kind: inhibition

- compound: "O=C(Nc1n[nH]c2nnc(-c3cccnc3)cc12)C1CC1"
  quantity kind: "inhibition"
  test result: "1.72%"
- compound: "NS(=O)(=O)c1ccc(N/N=C2\\C(=O)Nc3ccc(C(=O)NCc4ccncc4)cc32)cc1"
  quantity kind: "inhibition"
  test result: "6.51%"
- compound: "CNC(=O)c1cncc(/C=C/c2ccccc2C)c1"
  quantity kind: "inhibition"
  test result: "2.47%"
- compound: "CC1=C(C(=O)Nc2ccc3[nH]ncc3c2)C(c2ccc(F)cc2)N=C(c2ccc(C(F)(F)F)nc2)N1 (stereo not given)"
  quantity kind: "inhibition"
  test result: "-0.15%"
- compound: "O=C(O[C@H]1CN[C@H](C#Cc2cc3ncnc(Nc4ccc5c(cnn5Cc5ccccc5)c4)c3s2)C1)N1CCOCC1"
  quantity kind: "inhibition"
  test result: "2.02%"
- compound: "CCn1c(-c2nonc2N)nc2cncc(C(=O)NCCNC)c21"
  quantity kind: "inhibition"
  test result: "-4.29%"
- compound: "Cc1cc(O)cc(C)c1/C=C/c1cncc(C(=O)OC(C)(C)C)c1"
  quantity kind: "inhibition"
  test result: "2.31%"
- compound: "CNC(=O)c1ncccc1Nc1nc(Nc2cc3c(cc2OC)CCCN3C(=O)CN(C)C)nc2[nH]ccc12"
  quantity kind: "inhibition"
  test result: "-5.28%"
- compound: "Cc1ccc(-c2cc3c(NC(=O)C4CC4)ncnc3o2)cc1"
  quantity kind: "inhibition"
  test result: "-2.53%"
- compound: "COc1c(C(N)=O)cc(-c2ccc(Cl)cc2)cc1-c1ccc(S(N)(=O)=O)cc1"
  quantity kind: "inhibition"
  test result: "1.45%"

###

The entries below come with measured inhibition values attached.
target desc: Serine/threonine-protein kinase BRSK2 (Homo sapiens) (UniProt Q8IWQ3);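 further: mean kinase inhibition reported within the GSK PKIS dataset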
Sequence (whole entry): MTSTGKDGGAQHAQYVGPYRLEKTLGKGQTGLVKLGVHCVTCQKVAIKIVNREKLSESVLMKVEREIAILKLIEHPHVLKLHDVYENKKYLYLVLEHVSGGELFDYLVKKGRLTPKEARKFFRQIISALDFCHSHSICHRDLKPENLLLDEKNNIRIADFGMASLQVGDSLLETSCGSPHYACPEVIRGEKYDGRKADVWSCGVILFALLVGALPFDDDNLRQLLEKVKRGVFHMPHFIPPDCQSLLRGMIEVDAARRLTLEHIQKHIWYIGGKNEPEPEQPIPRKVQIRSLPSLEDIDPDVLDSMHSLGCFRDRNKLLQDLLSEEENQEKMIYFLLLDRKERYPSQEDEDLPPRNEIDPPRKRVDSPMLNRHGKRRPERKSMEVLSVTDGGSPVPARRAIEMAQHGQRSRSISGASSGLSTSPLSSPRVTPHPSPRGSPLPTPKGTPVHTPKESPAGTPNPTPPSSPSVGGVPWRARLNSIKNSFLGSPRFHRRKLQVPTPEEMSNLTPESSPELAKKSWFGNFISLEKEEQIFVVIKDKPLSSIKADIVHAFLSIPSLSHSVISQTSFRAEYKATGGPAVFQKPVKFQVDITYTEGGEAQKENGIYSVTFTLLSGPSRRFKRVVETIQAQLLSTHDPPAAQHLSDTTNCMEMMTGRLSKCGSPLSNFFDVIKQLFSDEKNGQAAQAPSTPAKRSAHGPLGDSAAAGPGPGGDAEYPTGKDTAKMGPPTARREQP
condition notes: at 1 µM
quantity kind: inhibition (%)

- structure: "O=C1Nc2ccccc2/C1=C1\\CCc2cc(O)ccc21"
  unit tag: "%"
  test result: 20.1
- structure: "O=C(Nc1n[nH]c2nnc(-c3cccnc3)cc12)C1CC1"
  unit tag: "%"
  test result: 1.6
- structure: "COc1cc(N2CCN(C(C)C)CC2)ccc1Nc1nc(Nc2cccc(F)c2C(=O)O)c2cc[nH]c2n1"
  unit tag: "%"
  test result: 3.39
- structure: "CCOc1ccc2c(-c3ccnc(Nc4cc(OC)cc(C(F)(F)F)c4)n3)cnn2n1"
  unit tag: "%"
  test result: 6.6
- structure: "NS(=O)(=O)c1cccc(N/C=C2\\C(=O)Nc3ccccc32)c1"
  unit tag: "%"
  test result: 26
- structure: "O=C(O[C@H]1CN[C@H](C#Cc2cc3ncnc(Nc4ccc5c(cnn5Cc5ccccc5)c4)c3s2)C1)N1CCOCC1"
  unit tag: "%"
  test result: 3.58
- structure: "Cc1ccc(-c2cc3c(NC(=O)C4CC4)ncnc3o2)cc1"
  unit tag: "%"
  test result: 4.69
- structure: "Fc1ccc(Nc2nccc(-c3c(-c4ccc(C(F)(F)F)cc4)nn4ncccc34)n2)cc1F"
  unit tag: "%"
  test result: 0.71
- structure: "OCCCNc1nccc(-c2c(-c3ccc(F)cc3)nn3cc(C(F)(F)F)ccc23)n1"
  unit tag: "%"
  test result: 3.37

###

target desc: Aurora kinase C (Homo sapiens);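 further: reported value is a mean inhibition of Aurora-C from the GSK PKIS screening panel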
Sequence (whole entry): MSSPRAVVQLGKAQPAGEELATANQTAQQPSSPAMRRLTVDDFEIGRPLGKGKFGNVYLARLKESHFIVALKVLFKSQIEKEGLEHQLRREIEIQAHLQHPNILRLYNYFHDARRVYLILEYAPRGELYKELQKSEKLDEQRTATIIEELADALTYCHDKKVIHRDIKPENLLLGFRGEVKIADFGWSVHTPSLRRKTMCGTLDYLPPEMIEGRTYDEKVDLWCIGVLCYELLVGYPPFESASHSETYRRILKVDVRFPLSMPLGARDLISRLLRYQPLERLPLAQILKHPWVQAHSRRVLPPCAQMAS
condition notes: at 1 µM
The entries below come with measured inhibition values attached.

- compound: "COc1cc(N2CCN(C(C)C)CC2)ccc1Nc1nc(Nc2cccc3ncccc23)c2cc[nH]c2n1"
  inhibition, %: -0.31
- compound: "COc1c(C(N)=O)cc(-c2ccc(Cl)cc2)cc1-c1ccc(S(N)(=O)=O)cc1"
  inhibition, %: 0.52
- compound: "COc1ccc2ncn(-c3cc(O[C@H](C)c4ccccc4C(F)(F)F)c(C(N)=O)s3)c2c1"
  inhibition, %: -0.3
- compound: "COc1ccc(-c2nn3ncccc3c2-c2ccnc(Nc3ccc(F)c(F)c3)n2)cc1"
  inhibition, %: 6.44
- compound: "CCS(=O)(=O)c1ccc(OC)c(Nc2ncc(-c3cccc(C(C)=O)c3)o2)c1"
  inhibition, %: -0.45
- compound: "COC(=O)Nc1nc2ccc(Oc3ccc(NC(=O)Nc4cc(C(F)(F)F)ccc4F)cc3)cc2s1"
  inhibition, %: 50.4
- compound: "CS(=O)(=O)CCNCc1ccc(-c2ccc3ncnc(Nc4ccc(OCc5ccccc5)cc4)c3c2)o1"
  inhibition, %: 7.65
- compound: "CCOc1ccc2c(-c3ccnc(Nc4cc(OC)cc(C(F)(F)F)c4)n3)cnn2n1"
  inhibition, %: 4.09
- compound: "CS(=O)(=O)Nc1ccc(-c2cc(-c3ccccc3)cc(C(N)=O)c2N)cc1"
  inhibition, %: 4.66
- compound: "NC(=O)c1ccc2c(-c3ccnc(NCCCO)n3)c(-c3ccc(F)cc3)nn2c1"
  inhibition, %: 6.84
- compound: "Fc1ccc(Nc2nccc(-c3c(-c4ccc(C(F)(F)F)cc4)nn4ncccc34)n2)cc1F"
  inhibition, %: 12.9
- compound: "OCCCNc1nccc(-c2c(-c3ccc(F)cc3)nn3cc(C(F)(F)F)ccc23)n1"
  inhibition, %: 2.19
- compound: "COc1cc(N2CCN(C(C)C)CC2)ccc1Nc1nc(Nc2cccc(F)c2C(=O)O)c2cc[nH]c2n1"
  inhibition, %: -0.44
- compound: "CS(=O)(=O)Nc1ccc(-c2ccc3c(NC(=O)C4CC4)n[nH]c3c2)cc1"
  inhibition, %: 23.3
- compound: "N#Cc1ccc2c(-c3ccnc(NC4CC4)n3)c(-c3ccc(F)cc3)nn2c1"
  inhibition, %: 5.38
- compound: "CN(c1ccc(NC(=O)NCCN2CCOCC2)cc1)c1ccnc(Nc2ccc(CS(C)(=O)=O)cc2)n1"
  inhibition, %: 104
- compound: "NS(=O)(=O)c1cccc(N/C=C2\\C(=O)Nc3ccccc32)c1"
  inhibition, %: 76.7
- compound: "COC(=O)Nc1nc2cc(Oc3ccc(NC(=O)Nc4ccccc4)cc3)ccc2[nH]1"
  inhibition, %: 42.6
- compound: "CN(C)CCNC(=O)Nc1ccc(N(C)c2ccnc(Nc3ccc(CS(C)(=O)=O)cc3)n2)cc1"
  inhibition, %: 94.5
- compound: "CC1=C(C(=O)Nc2ccc3[nH]nc(C)c3c2)C(c2ccc(C(F)(F)F)cc2)CC(=O)N1 (stereo not drawn)"
  inhibition, %: 78.2
- compound: "Fc1cccc(COc2ccc(Nc3ncncc3C#Cc3ccccc3)cc2Cl)c1"
  inhibition, %: -2.38
- compound: "O=C(O[C@H]1CN[C@H](C#Cc2cc3ncnc(Nc4ccc5c(ccn5Cc5cc(F)ccc5F)c4)c3s2)C1)N1CCOCC1"
  inhibition, %: 9.49
- compound: "CC1=C(C(=O)Nc2ccc3[nH]ncc3c2)C(c2ccc(F)cc2)N=C(c2ccc(C(F)(F)F)nc2)N1 (stereo not drawn)"
  inhibition, %: 21.3
- compound: "O=C(Nc1n[nH]c2nnc(-c3cccnc3)cc12)C1CC1"
  inhibition, %: 3.75
- compound: "O=C(O[C@H]1CN[C@H](C#Cc2cc3ncnc(Nc4ccc(OCc5cccc(F)c5)c(Cl)c4)c3s2)C1)N1CCOCC1"
  inhibition, %: 5.83
- compound: "COc1cccc(Nc2nccc(-c3cnn4ncccc34)n2)c1"
  inhibition, %: 97.3
- compound: "FC(F)(F)CNc1nccc(-c2cnn3ncccc23)n1"
  inhibition, %: 2.77
- compound: "COc1cc2c(cc1Nc1nc(Nc3cccc(F)c3C(N)=O)c3cc[nH]c3n1)N(C(=O)CN1CCN(C(C)C)CC1)CC2"
  inhibition, %: 3.25
- compound: "c1cnn2ncc(-c3ccnc(NCCCN4CCOCC4)n3)c2c1"
  inhibition, %: 1.86
- compound: "NS(=O)(=O)c1ccc(N/N=C2\\C(=O)Nc3ccc(C(=O)NCc4ccncc4)cc32)cc1"
  inhibition, %: 14.6
- compound: "CN1CCC(n2cnc(-c3ccc(F)cc3)c2-c2ccnc(NCCO)n2)CC1"
  inhibition, %: -3.16
- compound: "COc1cccc(-n2ncc3c(N/N=C/c4ccc(C(=O)NCCN(C)C)cc4)ncnc32)c1"
  inhibition, %: 57
- compound: "CC(C)c1ccc(-c2cc(-c3c[nH]nc3-c3ccccn3)ccn2)cc1"
  inhibition, %: -0.07
